The origin of these recorded values is patent US20190367592A1.

Molecular target: T1, recombinant human Tau monomer, 2N4R isoform (amino acids 2-441) (human, UniProt P10636-8 2-441)
T1 construct: range 2-441; N-terminal His-tag removed with TEV protease; also called monomeric Tau
T1 sequence (P10636 other isoform, or with tags, fused parts or gaps limits assumed): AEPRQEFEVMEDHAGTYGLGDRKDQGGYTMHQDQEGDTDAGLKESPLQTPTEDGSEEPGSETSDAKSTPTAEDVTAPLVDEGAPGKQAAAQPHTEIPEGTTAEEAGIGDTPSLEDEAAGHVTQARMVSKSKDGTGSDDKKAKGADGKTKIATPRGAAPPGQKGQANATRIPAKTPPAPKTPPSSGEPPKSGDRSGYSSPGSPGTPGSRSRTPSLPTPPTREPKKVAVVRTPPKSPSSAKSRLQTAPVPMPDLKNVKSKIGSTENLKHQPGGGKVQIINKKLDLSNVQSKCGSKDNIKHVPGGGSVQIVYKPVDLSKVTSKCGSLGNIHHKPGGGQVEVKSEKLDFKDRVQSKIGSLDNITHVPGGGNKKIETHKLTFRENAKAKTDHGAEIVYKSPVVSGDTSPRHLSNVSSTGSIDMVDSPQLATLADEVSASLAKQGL
Assay: SPR, mIgG2a captured, Tau monomer analyte, 1:1 fit
measured metric: koff

1. 3A4-H4 (antibody, mouse IgG2a, V domains shown) VH: EVQLVESGGDLVKPGGSLKLSCAASGFTFSSYGMSWVRQTPDKRLEWVATISSGGTYTYYPDSVKGRFTISRDNAKNTLYLQMSSLKSEDTAMYFCATSYDGAMDYWGQGTSVTVSS VL: DVLMTQTPLSLPVSLGDQASISCRSSQNIVHSNGNTYLEWYLQKPGQSPKLLIYKVSNRFSGVPDRFSGSGSGTDFTLKISRVEAEDLGVYYCFQGTLVPWTFGGGTKLEIK :: 0.0003 s⁻¹
